Tested on: PD-1/PD-L1 (Homo sapiens)
Assay protocol: PD1-PDL1 HTRF assay
Condition notes: PD-1/PD-L1 homogenous time-resolved fluorescence (HTRF) binding assay; Tag1-PDL1 5 nM, Tag2-PD1 50 nM
Observation type: IC50

Here is how some compounds turned out for IC50.
Cc1c(-c2ccc3c(c2)OCCO3)cccc1-c1ccn2c(-c3ccc(CN4CCC[C@H]4C(=O)O)cc3)cnc2c1 [Example 28]; 0.1 to 1 µM
Cc1c(Nc2nccc3cc(CNCCO)cnc23)cccc1-c1cccc(-c2ccn3c(-c4ccc(CNCCO)cc4)nnc3c2)c1C [Example 84]; ≤ 0.01 µM
Cc1c(-c2ccccc2)cccc1-c1ccn2c(-c3ccc(CNCC(O)CC(=O)O)cc3)cnc2c1 (centres unmarked) [Example 14]; 0.1 to 1 µM

Give IC50 for all compounds that follow.
1. Cc1c(Nc2nccc3cc(CN4CC[C@@H](O)C4)cnc23)cccc1-c1cccc(-c2ccn3c(-c4ccc(CNCCO)cc4)nnc3c2)c1C [Example 81]
2. Cc1c(-c2ccccc2)cccc1-c1ccn2c(-n3ccc(C(=O)NCCC(=O)O)n3)cnc2c1 [Example 47]

Output:
["≤ 0.01 µM", "0.1 to 1 µM"]

====

For each entry below, report its pIC50 value.
Tested on: PD-1/PD-L1 (Homo sapiens)
Assay protocol: PD1-PDL1 HTRF assay
Condition notes: PD-1/PD-L1 homogenous time-resolved fluorescence (HTRF) binding assay; Tag1-PDL1 5 nM, Tag2-PD1 50 nM
pIC50: −log10 of the molar value.

See these solved cases before continuing.
Cc1c(NC(=O)c2ccc(CNCCO)cn2)cccc1-c1cccc(-c2ccn3c(CNCCO)nnc3c2)c1C; ≥ 8.00
Cc1c(NC(=O)c2ccc(CNCCO)cn2)cccc1-c1cccc(-c2ccn3nc(CNCCO)nc3c2)c1C; ≥ 8.00
OCCCNCc1ccc(-c2cccc(-c3cccc(-c4ccn5nc(CNCCCO)nc5c4)c3Cl)c2Cl)cc1; ≥ 8.00

For each listed entry, give its pIC50.
1. CC(=O)NCCNC(=O)c1ccn(-c2cnc3cc(-c4cccc(-c5ccccc5)c4C)ccn23)n1
2. Cc1c(-c2ccc3c(c2)OCCO3)cccc1-c1ccn2c(-c3ccc(CN4CCC[C@H]4C(=O)O)cc3)nnc2c1
3. OCCNCc1nc2cc(-c3cccc(-c4cccc(-c5ccc(CN6CCC[C@@H]6CO)cc5)c4Cl)c3Cl)ccn2n1
4. O=C(O)[C@H]1CCCN1Cc1ccc(-c2nnc3cc(-c4cccc(-c5cccc(-c6ccc(CNCCO)cc6)c5Cl)c4Cl)ccn23)cc1
5. CC(C)(CO)NCc1nc2cc(-c3cccc(-c4cccc(-c5ccc(CNCCO)cc5)c4Cl)c3Cl)ccn2n1
6. Cc1c(NC(=O)c2ccc(CNCCO)cc2)cccc1-c1cccc(-c2ccn3nc(CNCCO)nc3c2)c1C

Output:
["6.00 to 7.00", "7.00 to 8.00", "≥ 8.00", "≥ 8.00", "≥ 8.00", "≥ 8.00"]

Okay, here is my list. What is pIC50 for each of these?
1. Cc1c(-c2ccccc2)cccc1-c1ccn2c(-c3ccc(CN4C[C@H](O)C[C@H]4C(=O)O)cc3)cnc2c1
2. Cc1c(-c2ccc3c(c2)OCCO3)cccc1-c1ccn2c(-c3ccc(CNCC(O)CC(=O)O)cc3)cnc2c1 (centres unmarked)
3. Cc1c(-c2ccc3c(c2)OCCO3)cccc1-c1ccn2c(-c3ccc(CN4CCOCC4C(=O)O)cc3)cnc2c1 (single isomer, unassigned) [Example 34]
4. Cc1c(NC(=O)c2ccc(CNCCO)cn2)cccc1-c1cccc(-c2ccn3c(CNC[C@@H]4CCC(=O)N4)nnc3c2)c1C
5. Cc1c(-c2ccc3c(c2)OCCO3)cccc1-c1ccn2c(-c3ccc(CN4CCOCC4C(=O)O)cc3)cnc2c1 (single isomer, unassigned) [Example 35]

Output:
["6.00 to 7.00", "6.00 to 7.00", "6.00 to 7.00", "≥ 8.00", "6.00 to 7.00"]

====

Tested on: PD-1/PD-L1 (Homo sapiens)
Assay protocol: PD1-PDL1 HTRF assay
Condition notes: PD-1/PD-L1 homogenous time-resolved fluorescence (HTRF) binding assay; Tag1-PDL1 5 nM, Tag2-PD1 50 nM
pIC50: −log10 of the molar value.
For each of the compounds below, state its pIC50.

Worked examples, 3 compounds total:
Cc1c(-c2ccccc2)cccc1-c1ccn2c(-c3ccc(CNCC(=O)O)cc3)cnc2c1; 6.00 to 7.00
Cc1c(-c2ccccc2)cccc1-c1ccn2c(-c3ccc(CNCCS(=O)(=O)O)cc3)cnc2c1; 6.00 to 7.00
Cc1c(-c2ccc(CNCCO)cc2)cccc1-c1cccc(-c2ccn3c(-c4ccc(CN5CCC[C@H]5C(=O)O)cc4)nnc3c2)c1C; ≥ 8.00

Read the next record carefully.
Input: Please list pIC50 recorded for the compound Cc1c(-c2ccc3c(c2)OCCO3)cccc1-c1ccn2c(-n3ccc(C(=O)NCC(=O)O)n3)cnc2c1
Output: 7.00 to 8.00

====

Tested on: PD-1/PD-L1 (Homo sapiens)
Assay protocol: PD1-PDL1 HTRF assay
Condition notes: PD-1/PD-L1 homogenous time-resolved fluorescence (HTRF) binding assay; Tag1-PDL1 5 nM, Tag2-PD1 50 nM
Observation type: IC50

Example compounds with recorded IC50:
Cc1c(-c2ccccc2)cccc1-c1ccn2c(-n3ccc(C(=O)NCCO)n3)cnc2c1; 100 to 1000 nM
O=C1CC[C@@H](CNCc2ccc(-c3cccc(-c4cccc(-c5ccn6c(CNC[C@@H]7CCC(=O)N7)nnc6c5)c4Cl)c3Cl)cc2)N1; ≤ 10 nM
Cc1c(-c2ccc(CNC[C@H]3CCC(=O)N3)cc2)cccc1-c1cccc(-c2ccn3c(-c4ccc(CNC[C@H]5CCC(=O)N5)cc4)nnc3c2)c1C; 10 to 100 nM
Cc1c(-c2ccc3c(c2)OCCO3)cccc1-c1ccn2c(-c3ccc(CN4CCOCC4C(=O)O)cc3)cnc2c1 (racemic) [Example 33]; 100 to 1000 nM
Cc1c(-c2ccc3c(c2)OCCO3)cccc1-c1ccn2c(-n3ccc(C(=O)NCC(=O)O)n3)nnc2c1; 10 to 100 nM

// input: 5 compounds below; output: IC50 for each
1. Cc1c(-c2ccc3c(c2)OCCO3)cccc1-c1ccn2c(-c3ccc(CN4C[C@H](O)C[C@H]4C(=O)O)cc3)nnc2c1
2. Cc1c(-c2ccc(CNC[C@@H]3CCC(=O)N3)cc2)cccc1-c1cccc(-c2ccn3c(-c4ccc(CNC[C@@H]5CCC(=O)N5)cc4)nnc3c2)c1C
3. CC(C)(CO)NCc1ccc(-c2cccc(-c3cccc(-c4ccn5nc(CNC(C)(C)CO)nc5c4)c3Cl)c2Cl)cc1
4. COCCNCc1ccc(-c2nnc3cc(-c4cccc(-c5cccc(NC(=O)c6ccc(CNCCO)cn6)c5C)c4C)ccn23)cc1
5. Cc1c(NC(=O)c2ccc(CNCCO)cc2)cccc1-c1cccc(-c2ccn3c(CNCCO)nnc3c2)c1C

Output:
1. 100 to 1000 nM
2. 10 to 100 nM
3. ≤ 10 nM
4. ≤ 10 nM
5. 100 to 1000 nM

For every item in the list below, what is its measured IC50?
1. CC(C)(CO)NCc1ccc(-c2cccc(-c3cccc(-c4ccn5nc(CNCCO)nc5c4)c3Cl)c2Cl)cc1
2. Cc1c(-c2ccccc2)cccc1-c1ccn2c(-c3ccc(CN4CCCCC4C(=O)O)cc3)cnc2c1 (racemic)
3. Cc1c(-c2ccccc2)cccc1-c1ccn2c(-c3ccc(CN4CCCCC4C(=O)O)cc3)nnc2c1 (stereo not drawn)
4. Cc1c(-c2ccc3c(c2)OCCO3)cccc1-c1ccn2c(-c3ccc(C(=O)NCC(=O)O)cc3)cnc2c1
5. Cc1c(-c2ccc(CNCCO)cc2)cccc1-c1cccc(-c2ccn3c(CN4CC[C@@H](C(=O)O)C4)nnc3c2)c1C

Output:
1. 10 to 100 nM
2. 100 to 1000 nM
3. 100 to 1000 nM
4. 100 to 1000 nM
5. 10 to 100 nM

====

Answer each item with its documented IC50.
Tested on: PD-1/PD-L1 (Homo sapiens, UniProt Q9NZQ7)
Sequence (Q9NZQ7 19-238 limits assumed): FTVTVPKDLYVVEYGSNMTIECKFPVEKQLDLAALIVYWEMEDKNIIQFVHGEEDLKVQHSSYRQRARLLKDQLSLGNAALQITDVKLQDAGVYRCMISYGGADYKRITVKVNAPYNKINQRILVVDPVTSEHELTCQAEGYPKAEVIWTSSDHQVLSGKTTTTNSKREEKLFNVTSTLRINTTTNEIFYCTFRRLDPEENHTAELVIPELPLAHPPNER
Assay protocol: PD1-PDL1 HTRF assay
Condition notes: PD-1/PD-L1 homogenous time-resolved fluorescence (HTRF) binding assay; Tag1-PDL1 5 nM, Tag2-PD1 50 nM

Recorded results for 3 molecules are shown here.
Cc1c(-c2ccc3c(c2)OCCO3)cccc1-c1ccn2c(-c3ccc(C(=O)N4CCC[C@H]4C(=O)O)cc3)cnc2c1 [Example 43]; 100 to 1000 nM
Cc1c(-c2ccccc2)cccc1-c1ccn2c(-c3ccc(CN4CCC[C@H]4CO)cc3)cnc2c1 [Example 24]; 100 to 1000 nM
Cc1c(-c2ccc(CNCCO)cc2)cccc1-c1cccc(-c2ccn3nc(CNC[C@@H]4CCC(=O)N4)nc3c2)c1C [Example 102]; 10 to 100 nM

Hi there! I need IC50 for each item below, if you can.
1. Cc1c(-c2ccccc2)cccc1-c1ccn2c(-c3ccc(CNCCCO)cc3)nnc2c1 [Example 15]
2. Cc1c(-c2ccc3c(c2)OCCO3)cccc1-c1ccn2c(-c3ccc(C(=O)N4CCC[C@@H]4C(=O)O)cc3)cnc2c1 [Example 42]
3. Cc1c(-c2ccc(CNC[C@@H]3CCC(=O)N3)cc2)cccc1-c1cccc(-c2ccn3nc(CNC[C@@H]4CCC(=O)N4)nc3c2)c1C [Example 99]
4. Cc1c(NC(=O)c2ccc(CNCCO)cc2)cccc1-c1cccc(-c2ccn3nc(CNC[C@@H]4CCC(=O)N4)nc3c2)c1C [Example 103]
5. Cc1c(-c2ccccc2)cccc1-c1ccn2c(-c3ccc(CNC(C)(C)CO)cc3)cnc2c1 [Example 17]
6. Cc1c(-c2ccc(CNCCO)cc2)cccc1-c1cccc(-c2ccn3c(NCCO)nnc3c2)c1C [Example 85]
7. Cc1c(NC(=O)c2ccc(CNCCO)cn2)cccc1-c1cccc(-c2ccn3c(-c4ccc(CN5CCC[C@H]5C(=O)O)cc4)nnc3c2)c1C [Example 69]

Output:
100 to 1000 nM
100 to 1000 nM
≤ 10 nM
100 to 1000 nM
100 to 1000 nM
100 to 1000 nM
≤ 10 nM

Please go through the list and note IC50 for each molecule.
1. Cc1c(-c2ccc3c(c2)OCCO3)cccc1-c1ccn2c(-c3ccc(CN4CCC[C@@H]4C(=O)O)cc3)nnc2c1 [Example 56]
2. Cc1c(-c2ccc3c(c2)OCCO3)cccc1-c1ccn2c(-c3ccc(CNCCC(=O)O)cc3)nnc2c1 [Example 61]

Output:
["10 to 100 nM", "100 to 1000 nM"]

Each recorded value in this set is attributed to patent US20260265248A1.
